Source of measurements: the supplement of paper PMC5919970

# Test system: TYKNU
# experimentalDetails: fractional viability relative to vehicle; TYKNU is a high-grade serous ovarian cancer line; higher = less growth inhibition
# studyConditions: 10uM; 72 h; genotype: sgCTRLA1 (non-targeting control)
Structures can show the parent of a compound that is named as a salt. The full ranking holds about 2,000 compounds; the median of “fractional viability relative to vehicle” is about 0.91, and the lowest 2% start at about 0.045. The sample as a whole holds a higher share of the lowest values than the screen did.
Consider the cut-off 0.2. If the recorded fractional viability is strictly smaller, the label is true (1); if not, the label is false (0).

These recorded examples may help you get a feel for the data.
* CC(C)(C)NCC(O)COc1cccc2c1CCC(=O)N2 (centres undefined) [Carteolol HCl] | false (0)
* CN(N=O)C(=O)NC1C(O)OC(CO)C(O)C1O (centres undefined) [Streptozotocin (STZ)] | false (0)
* O=C(c1ccc(C(=O)N2CCC(N3CCCC3)CC2)c(Nc2ccccc2)c1)N1CCC(N2CCCC2)CC1 | false (0)
* CC1(C)CCC2=C(O1)c1ccccc1C(=O)C2=O | true (1)
* C=C[C@]1(C)C[C@@H](OC(=O)CSC(C)(C)CNC(=O)[C@H](N)C(C)C)[C@]2(C)[C@H](C)CC[C@]3(CCC(=O)[C@H]32)[C@@H](C)[C@@H]1O [Valnemulin HCl] | false (0)
* Cc1cc(C)nc(NS(=O)(=O)c2ccc(NC(=S)NC(=O)COc3ccc(Br)cc3Cl)cc2)n1 | false (0)
* O=C(/C=C/c1ccc2ccccc2n1)c1ccncc1 | true (1)
* COCCOc1ccc2c(c1)ncn2-c1ccc2cccc(N3CCC(N)CC3)c2n1 | true (1)

Now, please, on to the next compound.
**Q:** Decide: fractional viability of O=C(NNc1ccccc1)c1ccncc1 strictly below 0.2?
**A:** false (0)
